Taken from ChEMBL document CHEMBL2046284.

target: Voltage-gated potassium channel, IKs; KCNQ1(Kv7.1)/KCNE1(MinK) (Homo sapiens, UniProt P15382+P51787); assay: Antagonist activity at KCNQ1/MINK expressed in CHO cells assessed as inhibition of KCl-induced 86Rb+ efflux incubated for 10 mins prior to KCl-induction by liquid scintillation counting
resultType: IC50 (µM)
Enter your answer as a number in µM; do not include the unit.

Consider the following illustrative entries.
compoundSmiles: O=C(Nc1ccc(Cl)nc1)c1cccc(Cl)c1
IC50 (µM): 41
--
compoundSmiles: O=C(Nc1ccc(Cl)nc1)c1ccc(Cl)c(Cl)c1
IC50 (µM): 17

Problem: Would you mind telling me what IC50 value was observed for O=C(Nc1ccc(Cl)nc1)c1ccc(C(F)(F)F)c(F)c1 ?
Result: 3.4

Problem: // query: CC(C)CS(=O)(=O)c1ccc(C(=O)Nc2ccc(Cl)nc2)cc1F
Result: 54

Problem: What do you get for O=C(Nc1ccc(Cl)nc1)c1ccc(Cl)c(F)c1 ?
Result: 15
